Data origin, for the record: ChEMBL document CHEMBL5236651

- System: Staphylococcus aureus
- protocol-description: Antibacterial activity against methicillin-sensitive Staphylococcus aureus 16-1 assessed as inhibition of bacterial growth by CLSI based micro broth double dilution method
- Assay type: functional
measured-parameter: MIC (µg/mL)

1) CC[C@H]1OC(=O)[C@@](C)(F)C(=O)[C@H](C)[C@@H](O[C@@H]2O[C@H](C)C[C@H](N(C)C)[C@H]2O)[C@@](C)(OC)C[C@@H](C)C(=O)[C@H](C)[C@H]2N(CCCN(C(C)=O)c3cnc4ccccc4c3)C(=O)O[C@]12C	0.25
2) CC[C@H]1OC(=O)[C@@](C)(F)C(=O)[C@H](C)[C@@H](O[C@@H]2O[C@H](C)C[C@H](N(C)C)[C@H]2O)[C@@](C)(OC)C[C@@H](C)C(=O)[C@H](C)[C@H]2N(CCCN(C(=O)CCc3ccccc3)c3cnc4ccccc4c3)C(=O)O[C@]12C	1
3) CC[C@H]1OC(=O)[C@@](C)(F)C(=O)[C@H](C)[C@@H](O[C@@H]2O[C@H](C)C[C@H](N(C)C)[C@H]2O)[C@@](C)(OC)C[C@@H](C)C(=O)[C@H](C)[C@H]2N(CCCN(C(=O)c3ccccc3)c3cnc4ccccc4c3)C(=O)O[C@]12C	0.25
4) CC[C@H]1OC(=O)[C@@](C)(F)C(=O)[C@H](C)[C@@H](O[C@@H]2O[C@H](C)C[C@H](N(C)C)[C@H]2O)[C@@](C)(OC)C[C@@H](C)C(=O)[C@H](C)[C@H]2N(CCCNc3cnc4ccccc4c3)C(=O)O[C@]12C	0.12
